method_summary: Pharmacokinetics according to renal function of patients
Format: in vivo, human
test_parameters: both sexes, human, plasma, oral, 200 mg, moderate impairment, 200 mg once daily, Day 7, plasma; read-out: Cmax, ss, geometric LS mean
test_readout: Cmax (ng/mL)
Record the value in ng/mL, omitting the unit from your answer.

Name the recorded Cmax for "CC(C)n1cc(C#N)c2cc(-n3cc(C(=O)O)cn3)ccc21" .
6490

----------
method_summary: Pharmacokinetics according to renal function of patients
Type: in vivo, human
test_parameters: both sexes, human, plasma, oral, 200 mg, normal renal function (control), 200 mg once daily, Day 7, plasma; read-out: Cmax, ss, geometric LS mean
Procedure: PK and PD of the compound of Example 1 were assessed under patient groups with various degrees of renal function. […]
test_readout: Cmax (ng/mL)
Record the value in ng/mL, omitting the unit from your answer.

Name the recorded Cmax for CC(C)n1cc(C#N)c2cc(-n3cc(C(=O)O)cn3)ccc21 [Example 1] .
5640
